Parameter %Inh: see the listing below.
# Tested on: PRKX
# run-parameters: concentration: 1 μM, replicates: in singlicate; n = 1;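 note: KINOMEscan kinase panel screen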
Give just the number in %; leave the unit off.

// known answers, use as guide
molecule: COc1cccc(C2=C(Nc3ccc(Cl)c(C(=O)O)c3)C(=O)NC2=O)c1
units-symbol: %
%Inh: 0
//
molecule: CC(=O)Nc1nc2cnc(Nc3cc(NC(=O)c4cccc(C5(C#N)CC5)c4Cl)ccc3C)nc2s1
units-symbol: %
%Inh: 19
//
molecule: CC(=O)N1CCN(c2ccc(Nc3nccc(-c4sc(C(C)C)nc4-c4cccc(NS(=O)(=O)c5cccc(Cl)c5)c4)n3)cn2)CC1
units-symbol: %
%Inh: 5
//
molecule: COC(=O)Nc1nc2ccc(Oc3ccc(NC(=O)Nc4cc(C(F)(F)F)ccc4F)cc3)cc2n1C.Cl
units-symbol: %
%Inh: 0
//
molecule: C[C@@H](Oc1cc(-n2cnc3cc(-c4ccnc(NCCS(C)(=O)=O)c4)ccc32)sc1C(N)=O)c1ccccc1Cl
units-symbol: %
%Inh: 0
//
molecule: Cl.c1ccc(-c2ccc3c(Nc4ccc5[nH]ccc5c4)ccnc3c2)nc1
units-symbol: %
%Inh: 3
//
molecule: COc1cccc(NC(=O)NC2CCN(c3ccnc(Nc4cc(OC)c(OC)c(OC)c4)n3)C2)c1 (centres unmarked)
units-symbol: %
%Inh: 28
//
molecule: Nc1ncc(-c2cccnc2)c2scc(-c3ccc4c(c3)CCN4C(=O)Cc3ccccc3)c12
units-symbol: %
%Inh: 23
//
molecule: O=C(Nc1n[nH]c2cc(-c3ccoc3)ccc12)C1CC1
units-symbol: %
%Inh: 0
//
molecule: Cc1ccc(F)c(C(=O)Nc2cccc(-c3nn4ccccc4c3-c3ccnc(Nc4cccc(F)c4)n3)c2)c1F
units-symbol: %
%Inh: 12

# query: %Inh of entry COc1ccc(-c2coc3ccc(-c4nnc(SCc5ccc(OC)c(C(F)(F)F)c5)o4)cc23)cc1
0

Would you mind telling me what %Inh value was observed for CCc1ccc(-c2ccc3c(c2)-c2c(cnn2C)S(=O)(=O)N3C)cc1 ?
16

Please give the measured %Inh for this molecule: Cl.NC(=O)c1cccc(Nc2nccc(Nc3ccc(Oc4c(Cl)cccc4Cl)c(Cl)c3)n2)c1
0

Field request: %Inh | item: COc1ccc(Nc2nccc(N3CCC(NC(=O)Nc4cccc(OC)c4)C3)n2)cc1 (centres unmarked)
15

Could you share which %Inh value was measured for O=C(Nc1cccc(-c2nn3ccccc3c2-c2ccnc(Nc3cccc(C(F)(F)F)c3)n2)c1)c1c(F)cccc1F ?
8

Any idea what its %Inh is? The molecule is Cc1cccc(Nc2nc(N[C@H]3CCNC3)ncc2C(N)=O)c1.Cl
38

Please report the recorded %Inh for Cc1ccc(C(=O)N2CC[C@@H](O)C2)cc1-n1c(C)cc(OCc2ccc(F)cc2F)c(Br)c1=O .
0

Name the reported %Inh value associated with the molecule Oc1cc(Nc2ccnc3cc(I)ccc23)ccc1F
0

----------
# Test system: IKK-beta
# Construct: gene IKBKB
# run-parameters: concentration: 1 μM, replicates: in singlicate; n = 1
Simple rule here: %Inh less than 2% is condition met, otherwise condition not met.

As a guide, the following entries are already answered.
compound: COCCOCCOc1cc2ncc3c4ccc(C#N)cc4[nH]c3c2cc1OC
label-class: condition not met

compound: CC(=O)N1CCN(c2ccc(Nc3nccc(-c4sc(C(C)C)nc4-c4cccc(NS(=O)(=O)c5cccc(Cl)c5)c4)n3)cn2)CC1
label-class: condition met

compound: Cl.Cl.NCC(NC(=O)c1cc(-c2ccccc2)c(-c2ccnc3[nH]ccc23)s1)c1ccccc1 (stereo not shown)
label-class: condition not met

compound: COc1ccc(CNC(=O)NC2CCN(c3ccnc(Nc4ccc(F)cc4)n3)CC2)cc1
label-class: condition met

compound: COc1cc2c(cc1OCCN1CCNCC1)ncc1c3ccc(C#N)cc3[nH]c21
label-class: condition not met

Now examine the next entry.
In plain terms, does Cc1cccc(NC(=O)Nc2ccc(Oc3ncnc4ccn(C)c34)cc2)c1 come in under 2% for %Inh?
condition not met

meta.source: paper PMC5540273
